Consider the following compounds; for each one, report its RHUCX2 % Inh. at Dose (μM).
study-system: recombinant human Cox-2 (r-hu Cox-2) (Homo sapiens, UniProt P35354)
Construct: made in house; host or cells: baculovirus/Sf9 insect cells (microsomes)
Sequence (P35354 18-604): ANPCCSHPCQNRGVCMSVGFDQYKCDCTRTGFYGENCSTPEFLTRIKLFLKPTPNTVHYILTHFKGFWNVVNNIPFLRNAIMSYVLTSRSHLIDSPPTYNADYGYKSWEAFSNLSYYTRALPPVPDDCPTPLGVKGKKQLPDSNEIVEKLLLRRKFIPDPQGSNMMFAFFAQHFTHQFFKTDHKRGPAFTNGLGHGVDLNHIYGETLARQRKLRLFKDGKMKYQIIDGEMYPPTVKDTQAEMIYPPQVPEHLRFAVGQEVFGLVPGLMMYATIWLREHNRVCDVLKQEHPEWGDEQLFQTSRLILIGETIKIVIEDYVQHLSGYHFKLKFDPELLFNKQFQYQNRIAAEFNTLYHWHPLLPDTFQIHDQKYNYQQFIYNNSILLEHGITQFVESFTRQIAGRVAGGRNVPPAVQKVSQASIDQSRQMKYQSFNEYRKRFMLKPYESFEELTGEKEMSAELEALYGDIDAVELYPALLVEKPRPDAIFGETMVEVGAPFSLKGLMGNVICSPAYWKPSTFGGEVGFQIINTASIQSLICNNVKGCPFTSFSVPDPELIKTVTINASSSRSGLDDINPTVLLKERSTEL
test-protocol: Recombinant human PGHS-2 enzyme assay (RHUCX2)
Assay type: biochemical
experimental-parameters: 1 μM
Method: To compare the mean responses of the treatment groups, analysis of variance was applied. Percent inhibition values were determined by comparing the individual treatment mean values to the mean of the control group. […] EIA reagents for prostaglandin determination were purchased from Perseptive Diagnostics, (Cambridge, Mass.). Prostaglandin E2 (PGE2) levels in lavage fluids were determined after the samples were dried under nitrogen and reconstituted with assay buffer. […]

Give me RHUCX2 % Inh. at Dose (μM) for each of these compounds, listed below.
1. CS(=O)(=O)c1ccc(-c2cnn(-c3ccc([N+](=O)[O-])s3)c(=O)c2-c2ccc(F)cc2)cc1 [Example 105]
2. CC(C)(O)COc1c(-c2ccc(S(C)(=O)=O)cc2)cnn(-c2ccc(F)c(F)c2)c1=O [Example 452]
3. CN(Cc1ccccc1)c1c(-c2ccc(S(C)(=O)=O)cc2)cnn(-c2cccc(Cl)c2)c1=O [Example 354]
4. CS(=O)(=O)c1ccc(-c2cnn(CC(F)(F)F)c(=O)c2Oc2cc(C(F)(F)F)ccc2F)cc1 [Example 263]
5. CS(=O)(=O)c1ccc(-c2cnn(Cc3ccc(Cl)s3)c(=O)c2-c2ccc(F)cc2)cc1 [Example 42]
6. CS(=O)(=O)c1ccc(-c2cnn(CC(F)(F)F)c(=O)c2Nc2ccc(F)cc2F)cc1 [Example 314]
7. CS(=O)(=O)c1ccc(-c2cnn(-c3cccc(Br)c3)c(=O)c2Oc2ccc(F)cc2)cc1 [Example 110]
8. CS(=O)(=O)c1ccc(-c2cnn(-c3ccc(F)cc3)c(=O)c2COc2ccc(F)cc2)cc1 [Example 194]

**A:**
1. 98 @ 1%
2. 15 @ 1%
3. 45 @ 1%
4. 76 @ 1%
5. 99 @ 1%
6. 4 @ 1%
7. 93 @ 1%
8. 73 @ 1%

Give RHUCX2 % Inh. at Dose (μM) for each listed item.
1. Cc1nn(CC(F)(F)F)c(=O)c(-c2ccc(F)cc2)c1-c1ccc(S(C)(=O)=O)cc1 [Example 64]
2. CS(=O)(=O)c1ccc(-c2cnn(-c3cccc(Cl)c3)c(=O)c2C2CCCC2)cc1 [Example 362]
3. CS(=O)(=O)c1ccc(-c2cnn(-c3cc(F)cc(F)c3)c(=O)c2-c2ccc(F)cc2)cc1 [Example 180]
4. CC(C)=CCOc1c(-c2ccc(S(C)(=O)=O)cc2)cnn(-c2ccc(F)cc2)c1=O [Example 422]
5. CC(C)=CCCOc1c(-c2ccc(S(C)(=O)=O)cc2)cnn(-c2ccc(F)cc2)c1=O [Example 424]
6. C#CCn1ncc(-c2ccc(S(C)(=O)=O)cc2)c(-c2ccc(F)cc2)c1=O [Example 48]
7. CS(=O)(=O)c1ccc(-c2cnn(-c3csc4ccccc34)c(=O)c2-c2ccc(F)cc2)cc1 [Example 107]

**A:**
1. 34 @ 1%
2. 49 @ 1%
3. 78 @ 1%
4. 52 @ 1%
5. 75 @ 1%
6. 73 @ 1%
7. 86 @ 1%

**Q:** Output RHUCX2 % Inh. at Dose (μM) of CS(=O)(=O)c1ccc(-c2cnn(CC(F)(F)F)c(=O)c2OCCN2CCOCC2)cc1 [Example 273]
**A:** 42 @ 1%
